Measured recombinant UMI read abundance (log10), listed per entry.
# measurementNotes: recombinant UMI read abundance after kanamycin selection (control-corrected) (log10(CPM+1)); higher = more efficient recombination; extreme values may be limits of the assay; sequences stand for … in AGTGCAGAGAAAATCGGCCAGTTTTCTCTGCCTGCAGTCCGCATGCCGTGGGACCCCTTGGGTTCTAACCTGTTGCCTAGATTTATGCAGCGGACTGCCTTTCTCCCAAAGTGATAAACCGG…AGGTTGGTTTCACT; site = the 11-nt donor
// keep it numeric: no unit symbol after the value

Using the record for CGGGAATCATGGACCGGTTTTCCCGGTAATCCGTATTTGAT (site CGGGAATCTAT) , report its recombinant UMI read abundance (log10).
2.01

Please look up its recombinant UMI read abundance (log10): ACTAATGCATGGACCGGTTTTCCCGGTAATCCGTATTTGGT (site ACTACTGCTAC)
0.116

What value of recombinant UMI read abundance (log10) has been recorded for this entry: CCTAATACATGGACCGGTTTTCCCGGTAATCCGTATTTGGT (site CCTAATACTGC)
0

# lookup: recombinant UMI read abundance (log10) of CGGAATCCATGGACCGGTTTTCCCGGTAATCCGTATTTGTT (site CGGTATCCTGA)
0

# input sequence: TCCTTGACATGGACCGGTTTTCCCGGTAATCCGTATTTGCT (site TCCTTGACTAG) ; wanted: its recombinant UMI read abundance (log10)
0

# query: recombinant UMI read abundance (log10) of entry ACATATACATGGACCGGTTTTCCCGGTAATCCGTATTTGTG (site ACATCTACTCA)
0.0121

Would you mind telling me what recombinant UMI read abundance (log10) value was observed for GCACCAACATGGACCGGTTTTCCCGGTAATCCGTATTTGCC (site GCACCAACTGG) ?
0.762

Recorded recombinant UMI read abundance (log10) of ACGCGCACATGGACCGGTTTTCCCGGTAATCCGTATTTGTT (site ACGCGCACTAA) , please.
1.61

# recombinant UMI read abundance (log10) lookup, item GCAAAGCCATGGACCGGTTTTCCCGGTAATCCGTATTTGGG (site GCCAAGCCTCC)
0.00875

====

# measurementNotes: recombinant barcode read abundance after kanamycin selection (control-corrected) (log10(CPM+1)); higher = more efficient recombination; sequences stand for … in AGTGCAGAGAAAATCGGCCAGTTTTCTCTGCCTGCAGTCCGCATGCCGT…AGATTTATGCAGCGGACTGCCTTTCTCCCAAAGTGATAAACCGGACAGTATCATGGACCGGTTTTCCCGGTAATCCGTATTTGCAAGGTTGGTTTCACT; site = the 11-nt target
experimentalEndpoint: recombinant barcode read abundance (log10)
Number only, please.

These recorded examples may help you get a feel for the data.
chainSequence: TTGAAACCTTGGGTTCTAACCTGTTGCCT (site GACGCCTCTGC)
result: 0.0146
//
chainSequence: TAGGACGCTTGGGTTCTAACCTGTTGCCT (site TATGACGCTAG)
result: 0.286
//
chainSequence: TAGTTTACTTGGGTTCTAACCTGTTGCAG (site ACTCCAGCTAG)
result: 0.294
//
chainSequence: ACCGAGTCTTGGGTTCTAACCTGTTGCCT (site ACCGAGTCTAG)
result: 1.85
//
chainSequence: AAACTAGCTTGGGTTCTAACCTGTTGCGG (site AAACTAGCTCC)
result: 2.27
//
chainSequence: GTGTCAGCTTGGGTTCTAACCTGTTGCCT (site GTGTCAGCTAG)
result: 1.56
//
chainSequence: TCCACAACTTGGGTTCTAACCTGTTGCCT (site TCCACACCTAG)
result: 0.122
//
chainSequence: GTTAACTCTTGGGTTCTAACCTGTTGCCT (site GTCAACTCTAG)
result: 0.51

GET /values?readout=recombinant barcode read abundance (log10)&item= GTGTTTCCTTGGGTTCTAACCTGTTGCAT (site GTGTGTCCTAT)
0.0468

Form field: reported recombinant barcode read abundance (log10) of ATTAAGACTTGGGTTCTAACCTGTTGCCT (site ATAAAGACTAG)
0.423

What value of measured recombinant barcode read abundance (log10) is listed for TCTGGGGCTTGGGTTCTAACCTGTTGCGG (site TCTGGGGCTCG) ?
0.271

Report recombinant barcode read abundance (log10) for TGCCTATCTTGGGTTCTAACCTGTTGCCT (site TCCCTATCTAG) please.
0.0417

# query: recombinant barcode read abundance (log10) of entry GTGGTACCTTGGGTTCTAACCTGTTGCCT (site GTGGTACCTAG)
2.77

Recorded recombinant barcode read abundance (log10) of CCACAGTCTTGGGTTCTAACCTGTTGCCT (site CCACCGTCTAG) , please.
0.117

What measured recombinant barcode read abundance (log10) goes with TGACAGTCTTGGGTTCTAACCTGTTGCAG (site TGACAGTCTCT) ?
1.42

Need recombinant barcode read abundance (log10), item AGCTCATCTTGGGTTCTAACCTGTTGCCT (site AGCTCATCTAG)
0.0912

Please look up its recombinant barcode read abundance (log10): GAGTAGTCTTGGGTTCTAACCTGTTGCTT (site GAGTAGACTAA)
0.941

Where do these numbers come from? They come from the supplement of paper PMC11208160.
